Where do the numbers come from? From patent US20220177583A1.

target: human CLDN6 fused to GFP, expressed on engineered HEK293T cells (human) (UniProt P56747); test: FACS, 293T clone with human CLDN6, 0.3 ug Ab
Known FACS signal of a selection of binders
ASSAY_ENDPOINT: FACS signal

[[record]]
binder = "AB9-chim (antibody, V domains shown) VH: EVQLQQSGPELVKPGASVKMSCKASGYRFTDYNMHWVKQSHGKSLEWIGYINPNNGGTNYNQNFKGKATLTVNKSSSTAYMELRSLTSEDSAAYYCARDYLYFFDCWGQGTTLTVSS VL: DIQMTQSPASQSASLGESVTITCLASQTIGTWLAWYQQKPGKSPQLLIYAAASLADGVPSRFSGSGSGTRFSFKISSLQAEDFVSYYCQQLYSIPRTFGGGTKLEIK"
assay_endpoint = "FACS signal"
recorded_measurement = 46700

[[record]]
binder = "AB4-8 (antibody, V domains shown) VH: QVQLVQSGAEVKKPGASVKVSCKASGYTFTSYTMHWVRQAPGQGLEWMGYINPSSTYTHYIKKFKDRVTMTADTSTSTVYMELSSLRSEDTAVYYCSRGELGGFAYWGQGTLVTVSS VL: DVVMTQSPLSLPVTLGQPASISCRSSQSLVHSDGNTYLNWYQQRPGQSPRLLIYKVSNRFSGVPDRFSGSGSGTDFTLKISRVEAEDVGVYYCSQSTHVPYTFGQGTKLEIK"
assay_endpoint = "FACS signal"
recorded_measurement = 49300

[[record]]
binder = "AB11-2 (antibody, V domains shown) VH: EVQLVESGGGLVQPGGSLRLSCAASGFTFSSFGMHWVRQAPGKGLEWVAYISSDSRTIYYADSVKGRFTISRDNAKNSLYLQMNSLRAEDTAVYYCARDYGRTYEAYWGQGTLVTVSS VL: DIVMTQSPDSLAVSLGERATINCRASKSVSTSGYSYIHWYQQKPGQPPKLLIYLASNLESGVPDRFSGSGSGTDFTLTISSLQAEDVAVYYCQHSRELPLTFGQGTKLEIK"
assay_endpoint = "FACS signal"
recorded_measurement = 1290

